These measurements were taken from patent US20260070976A1.

- measured on: cell surface PILRA on human monocytes (human, UniProt Q9UKJ1 20-303)
- Sequence (Q9UKJ1 20-303): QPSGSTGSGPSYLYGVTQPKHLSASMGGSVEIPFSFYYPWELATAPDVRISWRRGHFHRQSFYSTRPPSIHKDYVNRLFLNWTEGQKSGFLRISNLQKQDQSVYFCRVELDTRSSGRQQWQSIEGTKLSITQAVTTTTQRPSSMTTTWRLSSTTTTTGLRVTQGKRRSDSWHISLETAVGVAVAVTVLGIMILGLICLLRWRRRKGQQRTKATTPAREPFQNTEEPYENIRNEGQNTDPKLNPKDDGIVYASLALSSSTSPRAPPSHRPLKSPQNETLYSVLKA
- test details: cell-based or functional assay
Below is a list of entries, each paired with its recorded Hu Mono DR EC50 value.
Write the answer as a number in µg/mL, unit excluded.

Entry under review: X11 (antibody, human IgG4, V domains shown, conditioned media in the HEK293F assays) VH: QVQLVQSGAEVKKPGSSVKVSCKASGYNFLNYDVNWVRQAPGQGLEWMGGIIPIFGTANYAQKFQGRVTITADESTSTAYMELSSLRSEDTAVYYCATGVGAGWFDPWGQGTLVTVSS VL: DIVMTQSPDSLAVSLGERATINCKSSQSVYFSENNKNYLAWYQQKPGQPPKLLIYWASTRESGVPDRFSGSGSGTDFTLTISSLQAEDVAVYYCQQYYEEPYTFGQGTRLEIK . Reported Hu Mono DR EC50?
0.3

Entry under review: X7 (antibody, human IgG4, V domains shown, conditioned media in the HEK293F assays) VH: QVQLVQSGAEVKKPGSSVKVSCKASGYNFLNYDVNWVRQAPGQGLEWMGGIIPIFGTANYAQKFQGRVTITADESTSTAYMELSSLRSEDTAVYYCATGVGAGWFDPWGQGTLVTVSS VL: DIVMTQSPDSLAVSLGERATINCKSSQSVFFDENNKNYLAWYQQKPGQPPKLLIYWASTRESGVPDRFSGSGSGTDFTLTISSLQAEDVAVYYCQQYFEEPYTFGQGTRLEIK . Reported Hu Mono DR EC50?
0.9

Entry under review: X16 (antibody, human IgG4, V domains shown, conditioned media in the HEK293F assays) VH: QVQLVQSGAEVKKPGSSVKVSCKASGYNFLHYDVNWVRQAPGQGLEWMGGIIPIFGTANYAQKFQGRVTITADESTSTAYMELSSLRSEDTAVYYCATAVGAGWFDTWGQGTLVTVSS VL: DIVMTQSPDSLAVSLGERATINCKSSQSVYFDVNNKNYLAWYQQKPGQPPKLLIYWASTRESGVPDRFSGSGSGTDFTLTISSLQAEDVAVYYCQQYFEEPYTFGQGTRLEIK . Reported Hu Mono DR EC50?
0.005
